The following compounds are shown together with reported pIC50 values.
Test system: MCF7
Assay: Cytotoxicity against human MCF7 cells assessed as reduction in cell viability after 72 hrs by MTT assay
Assay type: functional, cell-based
Settings: MCF7, 72 h
pIC50: −log10 of the molar value.
ENDPOINT NAME: pIC50

- CPD SMILES: "NS(=O)(=O)c1ccc(-n2ncc3c(=O)[nH]c(-c4ccc(F)cc4)nc32)cc1"
  INEQUALITY SIGN: "="
  REPORTED: 4.42
- CPD SMILES: "COc1ccc(-c2nc3c(cnn3-c3ccc(S(N)(=O)=O)cc3)c(=O)[nH]2)cc1"
  INEQUALITY SIGN: "="
  REPORTED: 5.85
- CPD SMILES: "N=c1[nH]c(=O)[nH]c2c1cnn2-c1ccc(S(N)(=O)=O)cc1"
  INEQUALITY SIGN: "<"
  REPORTED: 4.00
- CPD SMILES: "NS(=O)(=O)c1ccc(-n2ncc3c(=O)[nH]c(-c4ccc(Br)cc4)nc32)cc1"
  INEQUALITY SIGN: "="
  REPORTED: 4.84
- CPD SMILES: "NC(=O)c1cnn(-c2ccc(S(N)(=O)=O)cc2)c1N"
  INEQUALITY SIGN: "<"
  REPORTED: 4.00

----------
The following compounds are shown together with reported IC50 values.
Tested on: MCF7
Assay: Cytotoxicity against human MCF7 cells assessed as reduction in cell viability after 72 hrs by MTT assay
Assay type: functional, cell-based
Conditions: MCF7, 72 h

- CPD SMILES: "NS(=O)(=O)c1ccc(-n2ncc3c(=O)[nH]c(-c4ccccc4)nc32)cc1"
  INEQUALITY SIGN: ">"
  IC50 / µM: 100
- CPD SMILES: "Nc1ncnc2c1cnn2-c1ccc(S(N)(=O)=O)cc1"
  INEQUALITY SIGN: "="
  IC50 / µM: 40.7
- CPD SMILES: "NS(=O)(=O)c1ccc(-n2ncc3c(=O)[nH]c(-c4ccc(Cl)cc4)nc32)cc1"
  INEQUALITY SIGN: "="
  IC50 / µM: 2.5
- CPD SMILES: "COc1ccc(-c2nc3c(cnn3-c3ccc(S(N)(=O)=O)cc3)c(=O)[nH]2)cc1OC"
  INEQUALITY SIGN: ">"
  IC50 / µM: 100
- CPD SMILES: "N#Cc1cnn(-c2ccc(S(N)(=O)=O)cc2)c1N"
  INEQUALITY SIGN: ">"
  IC50 / µM: 100
- CPD SMILES: "COc1cccc2c1C(=O)c1c(O)c3c(c(O)c1C2=O)C[C@@](O)(C(=O)CO)C[C@@H]3O[C@H]1C[C@H](N)[C@H](O)[C@H](C)O1"
  INEQUALITY SIGN: "="
  IC50 / µM: 1.02
